Tested on: sAPPα
Test: sAPPα secretion (sAPPα/sAPPβ multiplex kit)
Assay type: cell-based, human
Settings: Homo sapiens, 24 h; concentration to increase sAPPα by 1.5-fold vs untreated; read-out: sAPPα C1.5
Catalogue of EC (1.5-fold) readings, one per entry.
ASSAY METRIC: EC (1.5-fold)

INSERT INTO assay_data (compound, assay_metric, assay_result) VALUES
  ('Cc1cn(-c2cccc(CN(C)CCCN(C)C)c2)nc1-c1ccc(CN(C)CCCN(C)C)cc1 [Compound 69]', 'EC (1.5-fold)', '> 5 µM'),
  ('CN(C)CCCc1ccc(-c2nn(-c3cccc(CN(C)CCCN(C)C)c3)cc2CN(C)C)cc1 [Compound 34]', 'EC (1.5-fold)', '> 10 µM'),
  ('CN(C)CCCc1ccc(-c2nn(-c3ccc(CN(C)CCCN(C)C)cc3)cc2CCCN(C)C)cc1 [Compound 33]', 'EC (1.5-fold)', '> 10 µM');
